study.target: T1, human RXFP1 (human, UniProt Q9HBX9 1-757)
T1 sequence (looked up): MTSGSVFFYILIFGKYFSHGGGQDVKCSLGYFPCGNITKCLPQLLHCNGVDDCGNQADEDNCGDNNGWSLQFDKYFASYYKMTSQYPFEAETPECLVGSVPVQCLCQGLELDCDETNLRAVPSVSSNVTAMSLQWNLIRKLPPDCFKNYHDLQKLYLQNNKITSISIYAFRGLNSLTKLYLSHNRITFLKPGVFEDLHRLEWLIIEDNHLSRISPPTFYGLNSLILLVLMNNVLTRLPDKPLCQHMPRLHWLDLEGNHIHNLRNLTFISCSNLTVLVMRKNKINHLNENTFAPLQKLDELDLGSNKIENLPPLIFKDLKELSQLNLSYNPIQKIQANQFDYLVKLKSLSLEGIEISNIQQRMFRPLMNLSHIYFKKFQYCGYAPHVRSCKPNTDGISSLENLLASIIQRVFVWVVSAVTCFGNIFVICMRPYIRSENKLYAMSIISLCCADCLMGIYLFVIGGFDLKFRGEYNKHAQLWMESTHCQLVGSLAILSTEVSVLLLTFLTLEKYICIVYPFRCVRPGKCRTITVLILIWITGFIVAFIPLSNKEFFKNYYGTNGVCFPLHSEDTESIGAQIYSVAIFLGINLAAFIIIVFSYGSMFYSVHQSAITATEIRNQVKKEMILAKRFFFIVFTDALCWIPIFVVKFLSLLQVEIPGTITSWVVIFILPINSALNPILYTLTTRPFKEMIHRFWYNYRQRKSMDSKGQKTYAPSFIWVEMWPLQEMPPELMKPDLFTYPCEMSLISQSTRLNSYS
assay.procedure: cell-based or functional assay
# Lookup of reported Potency (cAMP, transient hRXFP1 in HEK293) keyed by entry
Express your answer as a number followed by its unit.

SEQ ID NO: 95 (Fc fusion) DKTHTCPPCPAPEAAGGPSVFLFPPKPKDTLMISRTPEVTCVVVDVSHEDPEVKFNWYVDGVEVHNAKTKPREEQYNSTYRVVSVLTVLHQDWLNGKEYKCKVSNKALAAPIEKTISKAKGQPREPQVYTLPPSRDELTKNQVSLTCLVKGFYPSDIAVEWESNGQPENNYKTTPPVLDSDGSFFLYSKLTVDKSRWQQGNVFSCSVLHEALHSHYTQKSLSLSPGEGGSDSWQEEVIKLCGRELVRAQIAICGKSTASDAAGAQADAGARQLYSALANKCCHVGCTKRSLAQFC : 6.8 nM

Now take the following binder into account.
Prompt: So what does the record say about Potency (cAMP, transient hRXFP1 in HEK293) for SEQ ID NO: 113 (Fc fusion) DKTHTCPPCPAPEAAGGPSVFLFPPKPKDTLMISRTPEVTCVVVDVSHEDPEVKFNWYVDGVEVHNAKTKPREEQYNSTYRVVSVLTVLHQDWLNGKEYKCKVSNKALAAPIEKTISKAKGQPREPQVYTLPPSRDELTKNQVSLTCLVKGFYPSDIAVEWESNGQPENNYKTTPPVLDSDGSFFLYSKLTVDKSRWQQGNVFSCSVLHEALHSHYTQKSLSLSPGEGGSDSWQEEVIKLCGRELVRAQIAICGQSTASDAAGANADAGARQLYSALANKCCHVGCTKQSLAQFC ?
Response: 26 nM

Hey, just so you know, these numbers are from patent US20250333467A1.
